# system.tested: UniProt D5FIC7
# test.description: Luciferase reporter gene assay, gmAra agonism (androgenic activity) in transfected COS-7 cells
quantity.kind: pEC50
Lab note — pEC50 values are minus log10 of concentrations in M.

Exam item: Notebook entry, UniProt D5FIC7 assay: pEC50 of "CC(C)(c1ccc(O)cc1)c1ccc(O)cc1" = ?
Marked response: 4.59

###

# system.tested: Atlantic cod androgen receptor alpha (gmAra) LBD (Gadus morhua, UniProt D5FIC7)
# Sequence (D5FIC7 409-718): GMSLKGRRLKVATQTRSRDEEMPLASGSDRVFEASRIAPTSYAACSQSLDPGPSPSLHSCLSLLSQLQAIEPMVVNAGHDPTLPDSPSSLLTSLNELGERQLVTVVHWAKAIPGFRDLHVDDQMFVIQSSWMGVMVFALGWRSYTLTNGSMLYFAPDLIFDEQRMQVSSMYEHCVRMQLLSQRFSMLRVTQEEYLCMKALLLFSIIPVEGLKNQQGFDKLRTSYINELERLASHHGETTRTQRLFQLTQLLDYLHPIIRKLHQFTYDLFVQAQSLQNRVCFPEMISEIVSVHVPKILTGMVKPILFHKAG
# test.description: Luciferase reporter gene assay, gmAra antagonism (antiandrogenic activity), coexposure with 5 nM testosterone
# Format: cell-based
# stated.conditions: gmAra IC50, in the presence of 5 nM testosterone (EC20)
quantity.kind: IC50 (nM)
// units = nM; emit number, no label

Past entries and their recorded results:
Exam item: // returns reported IC50 for input CC1CC(C)(C)CC(c2ccc(O)cc2)(c2ccc(O)cc2)C1 (stereo not drawn) [BPTMC]
Marked response: 1750

Exam item: // returns reported IC50 for input CC(C)c1cc(C(C)(C)c2ccc(O)c(C(C)C)c2)ccc1O [BPG]
Marked response: 200

Exam item: // returns reported IC50 for input CC(c1ccc(O)cc1)c1ccc(O)cc1 [BPE]
Marked response: 460

Exam item: // returns reported IC50 for input Oc1ccc(C2(c3ccc(O)cc3)CCCCC2)cc1 [BPZ]
Marked response: 880

Proceeding to the next molecule to report its IC50.
Exam item: // returns reported IC50 for input CC(C)(c1ccc(O)cc1)c1ccc(O)cc1 [BPA, Bisphenol A]
Marked response: 140
